Taken from patent US9908877B2.

assay_procedure: Ultraviolet-visible light spectrum (maximum absorbance wavelength)
Type: physicochemical
applied_conditions: MeCN, 30 μM
outcome_measure: λabs, max Abs

Answered cases to consult:
>>> test_value("CCN(CC)c1ccc(-n2cc(-c3cccc4cn(-c5ccc(C)cc5)c[n+]34)nn2)cc1.[Cl-] [Compound 14]")
"340 nm"
>>> test_value("CCN(CC)c1ccc(-n2c[n+]3ccccc3c2-c2ccc(OC)cc2)cc1.[Cl-] [Compound 7]")
"340 nm"
>>> test_value("Cc1ccc(-n2cc3cccc(-c4cn(-c5ccc(N(C)C)cc5)nn4)[n+]3c2)cc1.[Cl-] [Compound 13]")
"340 nm"
>>> test_value("Cc1ccc(-n2cc(-c3cccc4cn(-c5ccc(N(C)C)cc5)c[n+]34)nn2)cc1.[Cl-] [Compound 11]")
"400 nm"
>>> test_value("CCN(CC)c1ccc(-n2cc3cccc(-c4cn(-c5ccc(C)cc5)nn4)[n+]3c2)cc1.[Cl-] [Compound 12]")
"340 nm"

Query: Give the measured λabs, max Abs of CCN(CC)c1ccc(-c2c3cccc[n+]3cn2-c2ccc(OC)cc2)cc1.[Cl-] [Compound 6] .
Result: 350 nm

Query: Do the same for COc1ccc(-n2cc3cccc(-c4ccc(N(C)C)cc4)[n+]3c2)cc1 [Compound 21] please
Result: 360 nm

* * *

assay_procedure: Fluorescence emission spectrum (maximum emission wavelength)
Assay type: physicochemical
applied_conditions: H2O pH = 2.5, 30 μM
# λem, max Em per entry

Answered cases to consult:
>>> test_value("Cc1ccc(-n2cc(-c3cccc4cn(-c5ccc(N(C)C)cc5)c[n+]34)nn2)cc1.[Cl-] [Compound 11]")
"400 nm"
>>> test_value("Cc1ccc(-n2cc3cccc(-c4cn(-c5ccc(N(C)C)cc5)nn4)[n+]3c2)cc1.[Cl-] [Compound 13]")
"405 nm"
>>> test_value("CCN(CC)c1ccc(-n2c[n+]3ccccc3c2-c2ccc(OC)cc2)cc1.[Cl-] [Compound 7]")
"450 nm"

Let us move to another entry and its λem, max Em.
Query: Give the measured λem, max Em of CCN(CC)c1ccc(-c2c3cccc[n+]3cn2-c2ccc(OC)cc2)cc1.[Cl-] [Compound 6] .
Result: 400 nm

* * *

# […]F (quantum yield) per entry
assay_procedure: Fluorescence quantum yield, integrating sphere
Format: physicochemical
applied_conditions: H2O pH = 2.5, 30 μM
// return numeric value only (unit: %, not printed)

Answered cases to consult:
>>> test_value("Cc1ccc(-n2cc3cccc(-c4cn(-c5ccc(N(C)C)cc5)nn4)[n+]3c2)cc1.[Cl-] [Compound 13]")
59
>>> test_value("CCN(CC)c1ccc(-c2c3cccc[n+]3cn2-c2ccc(OC)cc2)cc1.[Cl-] [Compound 6]")
31
>>> test_value("CCN(CC)c1ccc(-n2c[n+]3ccccc3c2-c2ccc(OC)cc2)cc1.[Cl-] [Compound 7]")
42

Let us move to another entry and its […]F (quantum yield).
Query: Give the measured […]F (quantum yield) of Cc1ccc(-n2cc(-c3cccc4cn(-c5ccc(N(C)C)cc5)c[n+]34)nn2)cc1.[Cl-] [Compound 11] .
Result: 29

* * *

# pKa per entry
assay_procedure: pKa from fluorescence intensity versus pH
Assay type: physicochemical
applied_conditions: non-linear regression of fluorescence intensity versus pH, buffered water pH 2.5 to 7.5

>>> test_value("CCN(CC)c1ccc(-n2c[n+]3ccccc3c2-c2ccc(OC)cc2)cc1.[Cl-]")
4.4

Let us move to another entry and its pKa.
Query: Give the measured pKa of "CCN(CC)c1ccc(-c2c3cccc[n+]3cn2-c2ccc(OC)cc2)cc1.[Cl-]" .
Result: 5
